The reported measurements were obtained from patent US20220162334A1.

measured_on: T1, human CD73 on CD73-expressing human tumor cells (MDA-MB-231, NCI-H292) (human, UniProt P21589 27-549)
T1 construct: whole, on cells; The cell line of each result is named under assay or readout; also called cell surface CD73; surface CD73
T1 sequence (looked up): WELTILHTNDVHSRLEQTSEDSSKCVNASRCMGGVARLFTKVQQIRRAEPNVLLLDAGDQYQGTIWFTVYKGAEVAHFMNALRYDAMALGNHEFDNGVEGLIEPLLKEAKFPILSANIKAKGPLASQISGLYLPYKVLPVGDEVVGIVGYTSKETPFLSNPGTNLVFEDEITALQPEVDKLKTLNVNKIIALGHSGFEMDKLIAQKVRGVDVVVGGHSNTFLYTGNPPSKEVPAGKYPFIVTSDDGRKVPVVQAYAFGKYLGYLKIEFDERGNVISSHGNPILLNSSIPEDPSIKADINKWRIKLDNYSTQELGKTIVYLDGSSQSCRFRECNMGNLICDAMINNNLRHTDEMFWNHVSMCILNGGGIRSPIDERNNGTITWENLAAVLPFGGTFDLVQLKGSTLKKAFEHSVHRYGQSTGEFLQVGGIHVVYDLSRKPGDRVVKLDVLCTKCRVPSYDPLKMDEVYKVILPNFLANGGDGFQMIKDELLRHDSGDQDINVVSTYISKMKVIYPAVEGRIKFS
test_summary: flow cytometry on MDA-MB-231 and NCI-H292 cells (FIGS. 11A, 11B)
outcome_measure: binding result

binder	measurement
N4#6 (antibody, human IgG2, V domains shown, also called N4 variant N4#6) VH: QVQLVQSGAEVKKSGSSVKVSCKASGGTFSSYAISWVRQAPGQGLEWMGGIIPIFGTTNYAQKFQGRVTITADESTSIAYMELSSLRSEDTAVYYCASDGAVAAYDAFLIWGQGTMVTVSS VL: QAVLTQPSSVSGAPGQRVTISCTGTSSNIGAGYDIHWYQQLPGTAPKLLMYRFTRRPSGVPDRFSGSKSGTSASLTITGLQVEDEADYYCQSYDSGQRGWVFGGGTKLTVL	binds
N4#5 (antibody, human IgG2, V domains shown, also called N4 variant N4#5) VH: QVQLVQSGAEVKKSGSSVKVSCKASGGTFSSYAIAWVRQAPGQGLEWMGGIIPIFGTVNYAQKFQGRVTITADESTSIAYMELSSLRSEDTAVYYCASDGAVAAYDAFSIWGQGTMVTVSS VL: QAVLTQPSSVSGAPGQRVTISCTGTSSNIGAGYDIHWYQQLPGTAPKLLMYRFTRRPSGVPDRFSGSKSGTSASLTITGLQVEDEADYYCQSYDSGLRGLVFGGGTKLTVL	binds
N4#6-2 (antibody, human IgG2, V domains shown, also called N4 variant N4#6-2) VH: QVQLVQSGAEVKKSGSSVKVSCKASGGTFSSYAISWVRQAPGQGLEWMGRIIPIFGTTNYAQKFQGRVTITADESTSIAYMELSSLRSEDTAVYYCASDGAVAAYDAFLIWGQGTMVTVSS VL: QAVLTQPSSVSGAPGQRVTISCTGTSSNIGHGYDIHWYQHLPGTAPKLLMYRFVRRPSGVPDRFSGSKSGTSASLTITGLQVEDEADYYCQSYDSGQRGWVFGGGTKLTVL	binds
N4#4-3 (antibody, human IgG2, V domains shown, also called N4 variant N4#4-3) VH: QVQLVQSGAEVKKSGSSVKVSCKASGGTFASYAISWVRQAPGQGLEWMGGIIPIFGTVNYAQKFQGRVTITADESTSIAYMELSSLRSEDTAVYYCASDGAVAAYDAFDIWGQGTMVTVSS VL: QAVLTQPSSVSGAPGQRVTISCTGTSSNIGQGYDIHWYQQLPGTAPKLLMYRFTRRPSGVPDRFSGSKSGTSASLTITGLQVEDEADYYCQSYDSGLRGWAFGGGTKLTVL	binds
